Numbers sourced from patent US20170355774A1.

Target: T1, human GITR (amino acids M1-V241, NCBI Accession #NP_004186.1) expressed on cells (human, UniProt Q9Y5U5 26-241)
T1 sequence: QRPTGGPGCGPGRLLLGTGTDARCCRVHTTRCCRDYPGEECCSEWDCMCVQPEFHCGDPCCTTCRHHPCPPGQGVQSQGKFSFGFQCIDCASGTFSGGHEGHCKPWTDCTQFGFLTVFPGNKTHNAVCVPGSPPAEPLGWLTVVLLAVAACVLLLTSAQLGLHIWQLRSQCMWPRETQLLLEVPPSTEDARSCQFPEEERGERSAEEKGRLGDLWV
Assay: cell-based or functional assay
fold activation, T-cell proliferation, plate-bound Ab 10.6 nM, donor 6 values by entry
Value Type: fold activation, T-cell proliferation, plate-bound Ab 10.6 nM, donor 6

Binder	Val
H4H14508P (antibody, human IgG4, V domains shown, human IgG4 (H4H)) VH: QVQLVESGGGVVQPGRSLRLSCAASGLTVSSYVMHWVRQAPGKGLEWVAIIWYDGSNKYYGDSVKGRFTISRDNSKKTLYLQMNSLRAEDTAVYYCARGRPLSSSSSDYYGLDVWGQGTTVTVSS VL: AIQMTQSPSSLSASVGDRVTIICRASQGIRNDLGWYQQKPGKAPNLLIYAASSLQSGVPSRFSGSGSGTDFTLTISSLQPEDFATYYCLQDYNYPWTFGQGTKVEIK	11 fold
H4H14528P (antibody, human IgG4, V domains shown, human IgG4 (H4H)) VH: QVQLVESGGGVVQPGRSLRISCAASGFTFNNYGFHWVRQAPGRGLEWVAVIWYSGSNKYYGDSVKGRFTISRDNSKNILYLQMNSLRAEDTAIYYCARFPFSSSWLLDYWGQGTLVTVSS VL: DIQLTQSPSFLSASVGDRVTFTCWASQGISDYLAWYQQKPGKAPKLLIYAASALQSGVPSRFSGSGSGTEFTLTVSSLQPEDFATYYCQQLNSYPFTFGPGTKVDIK	31 fold
H4H14516P (antibody, human IgG4, V domains shown, human IgG4 (H4H)) VH: EVQLVESGGGLVQPGGSLRLSCAASGFTFSNYEMYWVRQAPGKGLEWVSYISSSGTTIYYADSVKGRFSVSRENARSSLYLQMNSLRVEDSAVYFCAKYNWNSFYGLDVWGQGTTVTVSS VL: AIQMTQSPSSLSASVGDRVTITCRASQDIRNDLGWYQQKPGKAPKLLISAASSLQGGVPSRFSGSGSGTDFTLTISSLQPADFATYYCLQEYNYALTFGGGTKVEIK	14 fold
